Source listed as the supplement of paper PMC4466140.

Target: SpCyk3
Assay: SPOT peptide array binding signal intensity (averaged, normalized) (arbitrary units (background-subtracted, floor 0; scale differs between SH3 domains)); higher = stronger binding of the SH3 domain to the peptide
parameter: SPOT peptide array binding signal intensity
Please state the value as a number alone, without comment.

Known SPOT peptide array binding signal intensity results, listed for orientation:
# binder, valueMeasured
data = [
    ("TPRLSLPRLPNKHHW", 2),
    ("SKSRLLIELPEGFFT", 1),
    ("SRSKPLPLTPNSKYN", 5),
    ("NQARKPFLLPATELS", 1),
]

Here is another binder to look at.
The reported value for "KTRLRPAFIQQLWSS" in terms of SPOT peptide array binding signal intensity is 5
